test-system: human GPR139 receptor (Homo sapiens)
Construct: expressed in transfected cells; host or cells: T-REx-CHO (Thermo Fisher Scientific), doxycycline-induced
Sequence (Q6DWJ6 1-353): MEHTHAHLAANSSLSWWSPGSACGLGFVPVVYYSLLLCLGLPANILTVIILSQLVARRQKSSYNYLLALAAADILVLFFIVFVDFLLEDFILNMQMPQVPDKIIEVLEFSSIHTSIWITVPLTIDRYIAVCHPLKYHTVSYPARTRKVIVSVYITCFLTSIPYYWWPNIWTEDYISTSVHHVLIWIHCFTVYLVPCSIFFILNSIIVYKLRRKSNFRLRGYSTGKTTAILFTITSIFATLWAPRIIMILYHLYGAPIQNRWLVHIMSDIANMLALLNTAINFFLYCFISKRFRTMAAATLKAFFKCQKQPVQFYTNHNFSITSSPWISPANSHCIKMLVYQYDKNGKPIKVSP
test-method-notes: Measurement of GPR139 Activation Via Calcium Signaling (FLIPR, T-REx-CHO cells)
Assay type: cell-based
condition-summary: T-REx-CHO cells stably expressing human GPR139, 11-point dose response, 10 μM maximum concentration, read-out: GPR139 Potency (pEC50) (converted)
Text: Measurement of GPR139 Activation Via Calcium Signaling This cell-based assay measures the ability of compounds to activate GPR139 in stably transfected T-REx™-CHO cells. T-REx™-CHO cells (Thermo Fisher Scientific®) are stably expressed with human GPR139 receptor, whose expression is controlled by a tetracycline-inducible element. […]
// classify: if (EC50 < 0.08 µM) 1.0 else 0.0

{"query-smiles": "Cc1ccc([C@H](C)NC(=O)Cn2ncc3c(C)nn(C(C)C)c3c2=O)cc1", "class-name": 0.0}
{"query-smiles": "Cc1nn(CC(=O)N[C@@H](C)c2ccc(C(F)(F)F)cc2)c(=O)c2c(C3CC3)nn(C)c12", "class-name": 0.0}
{"query-smiles": "[2H]C([2H])([2H])c1ccc([C@H](C)NC(=O)Cn2ncc3c(c(C)nn3C(C)C)c2=O)cc1", "class-name": 1.0}
{"query-smiles": "Cc1nn(C(C)C)c2c(C)nn(CC(=O)N[C@@H](C)c3ccc(C(F)(F)F)cc3)c(=O)c12", "class-name": 0.0}
{"query-smiles": "C[C@H](NC(=O)Cn1ncc2c(C3CC3)nn(C)c2c1=O)c1ccc(C(F)(F)F)cc1", "class-name": 0.0}
{"query-smiles": "CC(C)c1nn(C)c2cnn(CC(=O)N[C@@H](C)c3ccc(C(F)(F)F)cc3)c(=O)c12", "class-name": 1.0}
{"query-smiles": "Cc1ccc([C@H](C)NC(=O)Cn2ncc3c(C4CC4)nn(C)c3c2=O)c(F)c1", "class-name": 1.0}
{"query-smiles": "Cc1ccc(C)c([C@H](C)NC(=O)Cn2ncc3c(c(C)nn3C3CC3)c2=O)c1", "class-name": 0.0}
{"query-smiles": "Cc1nn(C(C)C)c2c(=O)n(CC(=O)N[C@@H](C)c3ccc(C(F)(F)F)cn3)ncc12", "class-name": 0.0}
{"query-smiles": "Cc1ccc([C@H](C)NC(=O)Cn2nc(C)c3cnn(C(C)(C)C)c3c2=O)cc1", "class-name": 0.0}
{"query-smiles": "Cc1ccc([C@H](C)NC(=O)Cn2nc(C3CC3)c3cnn(-c4ccccc4)c3c2=O)cc1", "class-name": 0.0}
{"query-smiles": "C[C@H](NC(=O)Cn1ncc2c(c(C3CC3)nn2C)c1=O)c1ccc(OC(F)(F)F)cc1", "class-name": 0.0}
{"query-smiles": "Cc1ccc([C@H](C)NC(=O)Cn2nc(C)c3cnn(-c4ccccc4)c3c2=O)cc1", "class-name": 1.0}
{"query-smiles": "Cc1ccc([C@H](C)NC(=O)Cn2nc(C)c3c(c(C)nn3C)c2=O)c(F)c1", "class-name": 0.0}
{"query-smiles": "Cc1cc(Cl)ccc1[C@H](C)NC(=O)Cn1ncc2c(c(C)cn2C2CC2)c1=O", "class-name": 0.0}
